Biological target: T1, canine NGF tagged at the C-terminus with the Flag tag (canine, UniProt A0A8I3PYI3 122-241)
T1 construct: mature; Expressed with baculovirus technology; also called feline NGF (processed form identical)
T1 sequence (A0A8I3PYI3 entry or part of it): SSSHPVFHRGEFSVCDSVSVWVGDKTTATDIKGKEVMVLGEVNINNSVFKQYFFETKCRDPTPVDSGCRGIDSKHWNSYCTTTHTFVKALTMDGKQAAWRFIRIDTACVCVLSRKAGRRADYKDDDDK
Test: SPR off-rate assay, Fab-SASA on BSA chip
Measured Ratio (kd) WT/clones of individual entries
Format: numeric value only, no unit, no commentary.

Worked examples follow.
{"BINDER": "AHF17606 (Fab, V domains shown, not shown: small tags and cut ends) VH: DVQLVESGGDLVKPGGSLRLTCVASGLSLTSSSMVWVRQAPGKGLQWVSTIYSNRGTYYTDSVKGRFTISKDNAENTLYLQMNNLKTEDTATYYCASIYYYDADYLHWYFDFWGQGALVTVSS VL: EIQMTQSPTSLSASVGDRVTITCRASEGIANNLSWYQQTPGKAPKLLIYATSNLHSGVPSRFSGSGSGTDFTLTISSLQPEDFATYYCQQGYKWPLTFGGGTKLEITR", "OBSERVED MEASUREMENT": 83.8}
{"BINDER": "AHF17600 (Fab, V domains shown, not shown: small tags and cut ends) VH: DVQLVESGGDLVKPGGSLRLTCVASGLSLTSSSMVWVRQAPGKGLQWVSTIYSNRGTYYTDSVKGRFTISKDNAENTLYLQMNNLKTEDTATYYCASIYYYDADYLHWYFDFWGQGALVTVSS VL: EIQMTQSPTSLSASVGDRVTITCRASEGISNNLSWYQQTPGKAPKLLIYATSVLHSGVPSRFSGSGSGTDFTLTISSLQPEDFATYYCQQGYKWPLTFGGGTKLEITR", "OBSERVED MEASUREMENT": 29}
{"BINDER": "AHF17592 (Fab, V domains shown, not shown: small tags and cut ends) VH: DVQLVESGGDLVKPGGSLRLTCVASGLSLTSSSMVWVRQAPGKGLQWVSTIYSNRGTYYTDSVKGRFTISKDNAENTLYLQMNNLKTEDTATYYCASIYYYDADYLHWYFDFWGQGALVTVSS VL: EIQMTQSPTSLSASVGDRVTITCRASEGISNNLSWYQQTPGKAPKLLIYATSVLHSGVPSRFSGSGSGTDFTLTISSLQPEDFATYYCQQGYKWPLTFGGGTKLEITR", "OBSERVED MEASUREMENT": 115}
{"BINDER": "AHF17598 (Fab, V domains shown, not shown: small tags and cut ends) VH: DVQLVESGGDLVKPGGSLRLTCVASGLSLTSSSMVWVRQAPGKGLQWVSTIYSNRGTYYTDSVKGRFTISKDNAENTLYLQMNNLKTEDTATYYCASIYYYDADYLHWYFDEWGQGALVTVSS VL: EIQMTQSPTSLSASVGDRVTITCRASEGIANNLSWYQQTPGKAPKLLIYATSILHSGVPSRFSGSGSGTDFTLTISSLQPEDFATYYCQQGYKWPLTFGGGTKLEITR", "OBSERVED MEASUREMENT": 32.1}

Alright, here's another binder for you.
Query block: State, in one line, measured Ratio (kd) WT/clones of AHF17607 (Fab, V domains shown, not shown: small tags and cut ends) VH: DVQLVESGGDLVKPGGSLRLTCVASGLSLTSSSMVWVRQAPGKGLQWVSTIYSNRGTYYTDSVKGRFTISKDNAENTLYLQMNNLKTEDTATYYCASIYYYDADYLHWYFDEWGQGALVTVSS VL: EIQMTQSPTSLSASVGDRVTITCRASEGISNNLSWYQQTPGKAPKLLIYATSILHSGVPSRFSGSGSGTDFTLTISSLQPEDFATYYCQQGYKWPLTFGGGTKLEITR
Result block: 1680
